- targetOrTestSystem: UniProt:Q62758
testReadout: pEC50
Friendly reminder that pEC50 comes from taking -log10 of the concentration in mol/L.

{"smilesString": "CC(C)n1c(=O)n(C(=O)NCC2CCN(CC3(O)CCOCC3)CC2)c2cc(F)ccc21", "testReadout": "pEC50", "readoutNumber": 8.80}

UniProt:Q62758 assay, molecule "CC1(C)C(=O)N(C(=O)NCC2CCN(CC3(O)CCOCC3)CC2)c2cc(F)ccc21" , recorded pEC50 = 8.67

---

Parameter pEC50, tested on 5-hydroxytryptamine receptor 4 (Homo sapiens, UniProt Q13639), listed per item.
Sequence (Q13639 whole entry): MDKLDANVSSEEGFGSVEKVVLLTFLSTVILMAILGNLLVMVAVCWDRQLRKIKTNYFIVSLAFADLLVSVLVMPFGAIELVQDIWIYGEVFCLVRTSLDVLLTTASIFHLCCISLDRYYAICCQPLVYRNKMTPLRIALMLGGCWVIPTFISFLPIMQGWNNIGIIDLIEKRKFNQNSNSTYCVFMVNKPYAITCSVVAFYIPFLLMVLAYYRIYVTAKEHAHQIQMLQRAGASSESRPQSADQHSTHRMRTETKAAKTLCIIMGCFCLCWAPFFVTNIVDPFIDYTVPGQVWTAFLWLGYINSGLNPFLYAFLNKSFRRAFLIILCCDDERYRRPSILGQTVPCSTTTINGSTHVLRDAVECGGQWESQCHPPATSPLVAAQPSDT
Friendly reminder that pEC50 comes from taking -log10 of the concentration in mol/L.

{"smilesString": "CC1(C)C(=O)N(C(=O)NCC2CCN(CC3(O)CCOCC3)CC2)c2cc(F)ccc21", "readoutNumber": 8.89}

Kindly consider the entry below.
5-hydroxytryptamine receptor 4 (Homo sapiens, UniProt Q13639) assay, molecule "CC(C)n1c(=O)n(C(=O)NCC2CCN(CC3(O)CCOCC3)CC2)c2cc(F)ccc21" , recorded pEC50 = 8.92

---

- targetOrTestSystem: 5-hydroxytryptamine receptor 4 (Rattus norvegicus, UniProt Q62758)
- Sequence (Q62758 whole entry): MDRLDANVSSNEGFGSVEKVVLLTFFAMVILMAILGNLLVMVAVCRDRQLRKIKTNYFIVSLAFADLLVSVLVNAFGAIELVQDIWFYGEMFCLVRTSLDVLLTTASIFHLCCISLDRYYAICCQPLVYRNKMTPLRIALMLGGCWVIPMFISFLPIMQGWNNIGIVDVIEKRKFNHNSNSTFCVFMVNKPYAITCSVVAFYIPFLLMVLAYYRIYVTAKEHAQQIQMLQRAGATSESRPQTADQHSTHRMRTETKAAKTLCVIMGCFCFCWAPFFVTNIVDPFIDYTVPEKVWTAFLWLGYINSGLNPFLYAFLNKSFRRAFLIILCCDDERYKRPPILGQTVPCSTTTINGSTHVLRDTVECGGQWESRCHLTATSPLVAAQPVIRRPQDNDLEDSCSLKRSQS
testReadout: pEC50
Friendly reminder that pEC50 comes from taking -log10 of the concentration in mol/L.

{"molecule": "CC(C)n1c(=O)n(C(=O)NCC2CCN(CC3(O)CCOCC3)CC2)c2cc(F)ccc21", "pEC50": 9.05}

Kindly consider the entry below.
Given item CC1(C)C(=O)N(C(=O)NCC2CCN(CC3(O)CCOCC3)CC2)c2cc(F)ccc21 [PF-03382792] , the value recorded as its pEC50 is 8.94

---

- measurementNotes: Intrinsic clearance in human liver microsomes
- Type: ADME, Microsome
- conditionDescription: read-out: CLH
Below is a list of entries, each paired with its recorded CLint scaled value.
// note: answer is a bare numeric in mL/min/kg

{"compound": "CC(C)(O)COc1cccc2onc(OCC3CCN(CC4(O)CCOCC4)CC3)c12", "readingUnit": "mL/min/kg", "CLint scaled": 38}
{"compound": "CC1(C)C(=O)N(C(=O)NCC2CCN(CC3(O)CCOCC3)CC2)c2cc(F)ccc21 [PF-03382792]", "readingUnit": "mL/min/kg", "CLint scaled": 25.4}
{"compound": "CC(C)COc1cccc2onc(OCC3CCN(CC4(O)CCOCC4)CC3)c12", "readingUnit": "mL/min/kg", "CLint scaled": 72}

Kindly consider the entry below.
Given item "CCCCN1CCC(COc2noc3cccc(OC4CCCC4)c23)CC1" , the value recorded as its CLint scaled is 77

---

- targetOrTestSystem: 5-hydroxytryptamine receptor 4 (Homo sapiens, UniProt Q13639)
- measurementNotes: Agonist activity at human 5HT4D receptor expressed in HEK293 cells assessed as cAMP production after 30 mins by HTRF assay relative to 5HT
- Type: functional, cell-based
testReadout: Emax (%)
// note: answer is a bare numeric in %

Solved entries (count: 5):
{"smilesString": "CC1(C)C(=O)N(C(=O)NCC2CCN(CC3(O)CCOCC3)CC2)c2cc(F)ccc21", "targetOrTestSystem": "5-hydroxytryptamine receptor 4 (Homo sapiens, UniProt Q13639)", "readoutNumber": 35}
{"smilesString": "CCCCN1CCC(COc2noc3cccc(OC4CCCC4)c23)CC1", "targetOrTestSystem": "5-hydroxytryptamine receptor 4 (Homo sapiens, UniProt Q13639)", "readoutNumber": 81}
{"smilesString": "CCCCN1CCC(COc2noc3cccc(OCC(C)(C)C)c23)CC1", "targetOrTestSystem": "5-hydroxytryptamine receptor 4 (Homo sapiens, UniProt Q13639)", "readoutNumber": 95}
{"smilesString": "CC(C)n1c(=O)n(C(=O)NCC2CCN(CC3(O)CCOCC3)CC2)c2cc(F)ccc21", "targetOrTestSystem": "5-hydroxytryptamine receptor 4 (Homo sapiens, UniProt Q13639)", "readoutNumber": 86}
{"smilesString": "CC(C)(O)COc1cccc2onc(OCC3CCN(CC4(O)CCOCC4)CC3)c12", "targetOrTestSystem": "5-hydroxytryptamine receptor 4 (Homo sapiens, UniProt Q13639)", "readoutNumber": 50}

Given item "O[C@@H]1CC[C@@H](Oc2cccc3onc(OCC4CCN(CC5(O)CCOCC5)CC4)c23)C1" , the value recorded as its Emax is 28

Given item "CC(C)COc1cccc2onc(OCC3CCN(CC4(O)CCOCC4)CC3)c12" , the value recorded as its Emax is 85

---

Below is a list of entries, each paired with its recorded Ki value.
- targetOrTestSystem: 5-hydroxytryptamine receptor 4 (Homo sapiens)
- measurementNotes: biochemical
- Description: Displacement of [3H]GR113808 from human 5HT4E receptor expressed in CHO cells after 30 mins by liquid scintillation counting
// note: answer is a bare numeric in nM

{"smilesString": "CC(C)n1c(=O)n(C(=O)NCC2CCN(CC3(O)CCOCC3)CC2)c2cc(F)ccc21", "Ki / nM": 4.9}

Kindly consider the entry below.
Given item "CC1(C)C(=O)N(C(=O)NCC2CCN(CC3(O)CCOCC3)CC2)c2cc(F)ccc21" , the value recorded as its Ki is 6.3

---

- targetOrTestSystem: 5-hydroxytryptamine receptor 4 (Homo sapiens, UniProt Q13639)
- measurementNotes: biochemical
- Description: Displacement of [3H]GR113808 from human 5HT4B receptor expressed in HEK293 cells after 30 mins by liquid scintillation counting
testReadout: pKi
Friendly reminder that pKi comes from taking -log10 of the concentration in mol/L.

Given item "CC(C)n1c(=O)n(C(=O)NCC2CCN(CC3(O)CCOCC3)CC2)c2cc(F)ccc21" , the value recorded as its pKi is 8.26

Given item CC1(C)C(=O)N(C(=O)NCC2CCN(CC3(O)CCOCC3)CC2)c2cc(F)ccc21 [PF-03382792] , the value recorded as its pKi is 8.17

---

Below is a list of entries, each paired with its recorded efflux ratio at 5 h, 2 µM value.
- System: MDR1
- measurementNotes: in vitro
- conditionDescription: dog, MDCK-MDR1
- Description: Efflux ratio of permeability from basal to apical to apical to basal side of MDCK cells expressing MDR1 at 2 uM after 5 hrs by transwell assay
API doc: respond with a numeric literal and nothing else, no unit.

{"compound": "O[C@@H]1CC[C@@H](Oc2cccc3onc(OCC4CCN(CC5(O)CCOCC5)CC4)c23)C1", "targetOrTestSystem": "MDR1", "readoutNumber": 2.2}

Given item CC1(C)C(=O)N(C(=O)NCC2CCN(CC3(O)CCOCC3)CC2)c2cc(F)ccc21 [PF-03382792] , the value recorded as its efflux ratio at 5 h, 2 µM is 1.37

Given item "CC(C)(O)COc1cccc2onc(OCC3CCN(CC4(O)CCOCC4)CC3)c12" , the value recorded as its efflux ratio at 5 h, 2 µM is 1.6

Given item "CC(C)n1c(=O)n(C(=O)NCC2CCN(CC3(O)CCOCC3)CC2)c2cc(F)ccc21" , the value recorded as its efflux ratio at 5 h, 2 µM is 1.41

---

Below is a list of entries, each paired with its recorded bioavailability value.
- measurementNotes: Oral bioavailability in dog
- Format: ADME, organism-based, Canis lupus familiaris
- conditionDescription: in vivo
// note: answer is a bare numeric in %

{"compound": "CC(C)n1c(=O)n(C(=O)NCC2CCN(CC3(O)CCOCC3)CC2)c2cc(F)ccc21", "bioavailability (%)": 100}
{"compound": "CC1(C)C(=O)N(C(=O)NCC2CCN(CC3(O)CCOCC3)CC2)c2cc(F)ccc21 [PF-03382792]", "bioavailability (%)": 51}

Kindly consider the entry below.
Given item OC1(CN2CCC(COc3noc4cccc(O[C@@H]5CCOC5)c34)CC2)CCOCC1 [PF-04995274] , the value recorded as its bioavailability is 47

---

- targetOrTestSystem: CYP2D6 (Homo sapiens)
- Sequence (P10635 whole entry): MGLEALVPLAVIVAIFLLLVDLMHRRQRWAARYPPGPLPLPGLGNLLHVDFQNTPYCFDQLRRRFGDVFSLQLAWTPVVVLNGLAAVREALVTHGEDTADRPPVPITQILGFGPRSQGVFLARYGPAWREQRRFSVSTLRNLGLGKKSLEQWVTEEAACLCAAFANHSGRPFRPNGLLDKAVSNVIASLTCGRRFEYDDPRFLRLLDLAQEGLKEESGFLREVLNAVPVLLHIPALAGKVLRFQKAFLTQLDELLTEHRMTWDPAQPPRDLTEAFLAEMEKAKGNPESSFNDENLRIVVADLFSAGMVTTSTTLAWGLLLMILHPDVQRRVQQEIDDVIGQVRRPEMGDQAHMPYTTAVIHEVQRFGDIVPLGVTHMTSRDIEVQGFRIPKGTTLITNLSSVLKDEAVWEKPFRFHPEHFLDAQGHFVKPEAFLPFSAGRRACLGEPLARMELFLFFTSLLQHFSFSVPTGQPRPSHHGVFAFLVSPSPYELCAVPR
- measurementNotes: Inhibition of CYP2D6 in human liver microsomes using dextromethorphan as substrate at 3 uM
- Assay type: ADME, Microsome
- conditionDescription: probe dextromethorphan
testReadout: inhibition at 3 µM (%)
// note: answer is a bare numeric in %

Solved entries (count: 6):
{"compound": "O[C@@H]1CC[C@@H](Oc2cccc3onc(OCC4CCN(CC5(O)CCOCC5)CC4)c23)C1", "readingUnit": "%", "readoutNumber": 37}
{"compound": "OC1(CN2CCC(COc3noc4cccc(O[C@@H]5CCOC5)c34)CC2)CCOCC1 [PF-04995274]", "readingUnit": "%", "readoutNumber": 13}
{"compound": "CC(C)(O)COc1cccc2onc(OCC3CCN(CC4(O)CCOCC4)CC3)c12", "readingUnit": "%", "readoutNumber": 21}
{"compound": "CCCCN1CCC(COc2noc3cccc(OC4CCCC4)c23)CC1", "readingUnit": "%", "readoutNumber": 79}
{"compound": "CCCCN1CCC(COc2noc3cccc(OCC4CCC4)c23)CC1", "readingUnit": "%", "readoutNumber": 93}
{"compound": "CCCCN1CCC(COc2noc3cccc(OCC(C)(C)C)c23)CC1", "readingUnit": "%", "readoutNumber": 93}

Kindly consider the entry below.
Given item "CC(C)COc1cccc2onc(OCC3CCN(CC4(O)CCOCC4)CC3)c12" , the value recorded as its inhibition at 3 µM is 54

---

- measurementNotes: Apparent permeability from apical to basal side of RRCK cells at 2 uM after 2 hrs by transwell assay
- Format: ADME, cell-based, Canis lupus familiaris, MDCKII-LE
- conditionDescription: dog, MDCK
Below is a list of entries, each paired with its recorded Papp A→B at 2 h, 2 µM value.
// note: answer is a bare numeric in ×10⁻⁶ cm/s

Solved entries (count: 3):
{"smilesString": "CC(C)(O)COc1cccc2onc(OCC3CCN(CC4(O)CCOCC4)CC3)c12", "readoutNumber": 35}
{"smilesString": "CCCCN1CCC(COc2noc3cccc(OC4CCCC4)c23)CC1", "readoutNumber": 2.4}
{"smilesString": "O[C@@H]1CC[C@@H](Oc2cccc3onc(OCC4CCN(CC5(O)CCOCC5)CC4)c23)C1", "readoutNumber": 15}

Given item "CC(C)n1c(=O)n(C(=O)NCC2CCN(CC3(O)CCOCC3)CC2)c2cc(F)ccc21" , the value recorded as its Papp A→B at 2 h, 2 µM is 21.9

Given item "OC1(CN2CCC(COc3noc4cccc(O[C@@H]5CCOC5)c34)CC2)CCOCC1" , the value recorded as its Papp A→B at 2 h, 2 µM is 30

Given item "CC(C)COc1cccc2onc(OCC3CCN(CC4(O)CCOCC4)CC3)c12" , the value recorded as its Papp A→B at 2 h, 2 µM is 3.8
